target: Bovine cardiac myosin (Bos taurus (Bovine)); test: Cardiac muscle myosin II actin-activated ATPase assay (NADH-coupled); assay type: biochemical; conditions: 300 nM cardiac myosin, 10 μM actin, 25° C.; read-out: CMMII KI
Sequence (Q9BE39 whole entry): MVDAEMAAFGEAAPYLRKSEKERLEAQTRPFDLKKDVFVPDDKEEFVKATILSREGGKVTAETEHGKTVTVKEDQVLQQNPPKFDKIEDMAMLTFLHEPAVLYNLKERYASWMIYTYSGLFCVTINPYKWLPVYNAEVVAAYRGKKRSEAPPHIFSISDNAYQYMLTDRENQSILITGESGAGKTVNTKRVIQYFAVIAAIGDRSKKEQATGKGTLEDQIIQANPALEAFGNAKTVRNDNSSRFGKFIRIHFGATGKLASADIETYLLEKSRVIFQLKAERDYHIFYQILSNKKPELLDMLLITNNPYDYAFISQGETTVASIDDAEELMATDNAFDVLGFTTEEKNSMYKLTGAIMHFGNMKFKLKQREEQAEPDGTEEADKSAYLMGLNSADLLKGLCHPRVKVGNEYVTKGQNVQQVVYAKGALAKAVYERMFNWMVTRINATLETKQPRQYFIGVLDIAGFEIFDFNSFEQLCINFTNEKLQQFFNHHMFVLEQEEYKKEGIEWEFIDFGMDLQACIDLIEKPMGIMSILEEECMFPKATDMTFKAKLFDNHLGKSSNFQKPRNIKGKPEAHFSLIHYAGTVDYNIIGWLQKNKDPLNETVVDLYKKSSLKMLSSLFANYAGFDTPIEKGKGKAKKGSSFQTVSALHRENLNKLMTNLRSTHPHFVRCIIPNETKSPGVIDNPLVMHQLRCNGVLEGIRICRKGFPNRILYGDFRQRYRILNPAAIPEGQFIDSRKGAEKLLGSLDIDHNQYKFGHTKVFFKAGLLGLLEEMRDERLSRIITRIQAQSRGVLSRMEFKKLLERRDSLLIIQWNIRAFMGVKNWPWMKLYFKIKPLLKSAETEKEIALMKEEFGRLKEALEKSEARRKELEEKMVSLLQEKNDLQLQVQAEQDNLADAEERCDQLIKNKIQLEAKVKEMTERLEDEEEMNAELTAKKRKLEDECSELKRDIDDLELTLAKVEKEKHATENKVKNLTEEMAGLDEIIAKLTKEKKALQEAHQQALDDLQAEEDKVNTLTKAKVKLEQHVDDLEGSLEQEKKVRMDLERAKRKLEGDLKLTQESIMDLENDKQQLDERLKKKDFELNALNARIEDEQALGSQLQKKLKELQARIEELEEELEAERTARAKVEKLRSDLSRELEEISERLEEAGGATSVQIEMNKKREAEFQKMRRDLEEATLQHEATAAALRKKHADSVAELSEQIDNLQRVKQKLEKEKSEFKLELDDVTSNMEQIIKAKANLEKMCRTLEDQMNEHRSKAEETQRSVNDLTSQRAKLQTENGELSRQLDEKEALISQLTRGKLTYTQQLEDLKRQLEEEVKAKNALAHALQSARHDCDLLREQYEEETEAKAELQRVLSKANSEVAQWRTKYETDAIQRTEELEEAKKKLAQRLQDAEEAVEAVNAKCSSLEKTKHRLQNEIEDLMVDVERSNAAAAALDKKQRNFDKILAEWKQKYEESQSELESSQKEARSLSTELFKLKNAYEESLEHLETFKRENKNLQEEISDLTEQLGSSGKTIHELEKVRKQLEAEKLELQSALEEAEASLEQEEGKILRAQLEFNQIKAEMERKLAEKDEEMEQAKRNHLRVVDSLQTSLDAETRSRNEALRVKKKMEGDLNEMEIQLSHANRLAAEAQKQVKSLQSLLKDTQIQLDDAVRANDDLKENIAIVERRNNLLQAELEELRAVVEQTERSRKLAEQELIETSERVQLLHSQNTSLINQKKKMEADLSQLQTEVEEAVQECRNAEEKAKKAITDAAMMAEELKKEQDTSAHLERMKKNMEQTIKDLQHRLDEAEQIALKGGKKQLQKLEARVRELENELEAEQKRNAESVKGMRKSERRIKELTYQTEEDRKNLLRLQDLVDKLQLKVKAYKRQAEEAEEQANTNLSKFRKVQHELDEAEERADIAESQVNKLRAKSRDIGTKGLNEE
Sequence (P85100 whole entry partner): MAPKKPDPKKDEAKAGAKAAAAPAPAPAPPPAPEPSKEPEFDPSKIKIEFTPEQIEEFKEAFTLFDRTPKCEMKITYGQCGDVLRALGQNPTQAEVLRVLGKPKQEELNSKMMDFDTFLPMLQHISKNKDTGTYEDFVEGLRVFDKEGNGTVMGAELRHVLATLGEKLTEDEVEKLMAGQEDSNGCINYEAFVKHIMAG
Sequence (Q3SZE5 whole entry partner): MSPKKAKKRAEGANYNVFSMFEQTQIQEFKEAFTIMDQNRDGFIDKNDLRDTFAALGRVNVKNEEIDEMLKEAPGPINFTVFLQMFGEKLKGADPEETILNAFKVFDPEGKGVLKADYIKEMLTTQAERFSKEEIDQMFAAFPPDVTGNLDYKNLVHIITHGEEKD
measuredProperty: Ki (µM)

molecule	measuredProperty	unitString	reported
Cc1cc(C)c2c(c1)N=C1N(c3ccc4ncccc4c3)CC[C@@]1(O)C2=O	Ki	µM	60
COc1cccc(N2CC[C@@]3(O)C(=O)c4cc(C)ccc4N=C23)c1	Ki	µM	28
Cc1ccc2c(c1)C(=O)[C@]1(O)CCN(c3ccc(C#N)c(C)c3)C1=N2	Ki	µM	30
Cc1cc2c(cc1C)C(=O)[C@]1(O)CCN(c3cnc(C)c(C)c3)C1=N2 [BPN-0028731]	Ki	µM	40
Cc1ccc2c(c1)C(=O)[C@]1(O)CCN(c3ccc4ncccc4c3)C1=N2	Ki	µM	37
Cc1cc2c(cc1C)C(=O)[C@]1(O)CCN(c3ccc4c(c3)OCCO4)C1=N2	Ki	µM	8.4
Cc1ccc2c(c1)C(=O)[C@]1(O)CCN(c3ccc4ncc(N)cc4c3)C1=N2	Ki	µM	80
O=C1c2c(sc3ccccc23)N=C2N(c3ccccc3)CC[C@@]12O	Ki	µM	23
Cc1cc2c(cc1C)C(=O)[C@]1(O)CCN(c3ccc4ncsc4c3)C1=N2	Ki	µM	45
Cc1nc2cc(N3CC[C@@]4(O)C(=O)c5cc(F)c(C)cc5N=C34)ccc2o1	Ki	µM	10.5
Cc1cc2c(s1)N=C1N(c3cccc(Br)c3)CC[C@@]1(O)C2=O	Ki	µM	210
COc1ccc(N2CC[C@@]3(O)C(=O)c4cc(C)c(C)cc4N=C23)cc1	Ki	µM	4.2
Cc1cc2c(cc1C)C(=O)[C@]1(O)CCN(c3ccc4oc(CO)cc4c3)C1=N2	Ki	µM	4.6
Cc1cc2c(cc1C)C(=O)[C@]1(O)CCN(c3ccc(Cl)cc3)C1=N2	Ki	µM	6
Cc1nc2ccc(N3CC[C@@]4(O)C(=O)c5cc(C)c(C)cc5N=C34)cc2o1	Ki	µM	33
Cc1cc2c(cc1C)C(=O)[C@]1(O)CCN(c3ccc4ncc(CO)cc4c3)C1=N2	Ki	µM	90
Cc1cc2c(cc1C)C(=O)[C@]1(O)CCN(c3ccc4c(c3)OCCN4)C1=N2	Ki	µM	26
Cc1ccc2c(c1)C(=O)[C@]1(O)CCN(c3ccc4sc(C)nc4c3)C1=N2	Ki	µM	51
Cc1ccc2c(c1)C(=O)[C@]1(O)CCN(c3ccc(CO)c(Cl)c3)C1=N2	Ki	µM	21
Cc1ccc2c(c1)C(=O)[C@]1(O)CCN(c3ccc4ncsc4c3)C1=N2	Ki	µM	22
Cc1cc2c(cc1C)C(=O)[C@]1(O)CCN(c3ccc(C#N)cc3)C1=N2	Ki	µM	5.7
Cc1nc2cc(N3CC[C@@]4(O)C(=O)c5cc(C)c(C)cc5N=C34)ccc2s1	Ki	µM	24
Cc1ccc2c(c1)C(=O)[C@]1(O)CCN(c3ccc4c(c3)OCCN4)C1=N2	Ki	µM	21
Cc1cc2c(cc1C)C(=O)[C@]1(O)CCN(c3ccc4c(c3)COCCN4)C1=N2	Ki	µM	210
Cc1cc2c(cc1C)C(=O)[C@]1(O)CCN(c3cnc4c(c3)OCCN4)C1=N2	Ki	µM	12
Cc1cc2c(cc1C)C(=O)[C@]1(O)CCN(c3cccs3)C1=N2	Ki	µM	5.3
Cc1ccc2c(c1)C(=O)[C@]1(O)CCN(c3ccc4nccnc4c3)C1=N2	Ki	µM	80
Cc1cc2c(cc1C)C(=O)[C@]1(O)CCN(c3ccc4c(c3)NCCC4)C1=N2	Ki	µM	5.8
COc1cc(N2CC[C@@]3(O)C(=O)c4cc(F)c(C)cc4N=C23)ccn1	Ki	µM	73
Cc1cc2c(cc1C)C(=O)[C@]1(O)CCN(c3cnc(CO)c(Cl)c3)C1=N2	Ki	µM	30
Cc1cc2c(s1)C(=O)[C@]1(O)CCN(c3ccc(C#N)c(Cl)c3)C1=N2	Ki	µM	52
Cc1cc2c(s1)N=C1N(c3ccc4ccoc4c3)CC[C@@]1(O)C2=O	Ki	µM	14
Cc1cc(N2CC[C@@]3(O)C(=O)c4c(sc(C)c4C)NC23)ccc1C#N (stereo partly shown)	Ki	µM	19
Cc1cc2c(cc1C)C(=O)[C@]1(O)CCN(c3ccc4nc(CN(C)C)ccc4c3)C1=N2	Ki	µM	300
